- Tested on: M14 melanoma
- assayNotes: NCI tumour cell line growth inhibition, 48 h
Use 30 µM as the dividing line for TGI, with the line itself on the yes (1) side and lower values as no (0).

{"columns": ["compound", "categoryLabel"],
 "data": [
  ["CNC(=O)c1n[nH]n(Cc2ccccc2)c1=S", "yes (1)"],
  ["COc1cc(-c2c3c([nH]c(=O)c2C#N)-c2cc([N+](=O)[O-])ccc2CCC3)cc(OC)c1OC", "yes (1)"],
  ["CC(C)=CCc1ccc(O)c(=O)cc1C(C)C", "no (0)"],
  ["c1ccc(SC(Sc2ccccc2)c2ccc3c(c2)OCO3)cc1", "yes (1)"],
  ["Cc1ccc([N+](=O)[O-])cc1NC(=O)C(=O)Cc1cc(=O)oc2cc(O)ccc12", "yes (1)"],
  ["O=C(O)CSc1nnc(CCCCCCCCc2nnc(SCC(=O)O)o2)o1", "yes (1)"],
  ["O=c1[nH]cc(N(CCCl)CCCl)c(=O)[nH]1", "yes (1)"],
  ["O=c1oc2cccnc2n1CCN1CCN(c2ccc(Oc3ccccc3)cc2)CC1", "yes (1)"],
  ["CCN(CC)CCCNc1nc2ccccc2c2c(=O)c3cc(Cl)ccc3sc12", "no (0)"],
  ["CC(=O)[O-].CC(=O)[O-].O=C(N/N=C/c1cc(Cl)cc(Cl)c1[OH2+])c1ccncc1.[Zn+2]", "yes (1)"],
  ["Cn1c(=O)c2[nH]c(C3CC(=O)CC(c4nc5c([nH]4)c(=O)n(C)c(=O)n5C)N3)nc2n(C)c1=O (stereo not given)", "yes (1)"],
  ["O=C(Nc1ccc(Cl)cc1)c1ccc([N+](=O)[O-])o1", "no (0)"],
  ["Oc1ccc2c3c1OC1C(=NN=C4CCC5(O)C6Cc7ccc(O)c8c7C5(CCN6CC5CC5)C4O8)CCC4(O)C(C2)N(CC2CC2)CCC314 (stereo not given)", "yes (1)"],
  ["Cn1cnc([N+](=O)[O-])c1Sc1nc2cccnc2s1", "no (0)"],
  ["COc1ccc(/C(=N\\O)c2cc(OC)c(OC)c(OC)c2)c(OC)c1N", "yes (1)"],
  ["O=C1/C(=C/c2ccc(Cl)cc2)CN(Cc2cn(CCNc3ccnc4cc(Cl)ccc34)nn2)C/C1=C\\c1ccc(Cl)cc1", "no (0)"],
  ["COc1ccc(C(=O)Cn2c(C(C)=O)nc3ccccc32)cc1", "yes (1)"],
  ["COc1ccc(-c2oc3cc(OC)c(OC)c(OC)c3c(=O)c2OC)cc1OC", "yes (1)"],
  ["COc1ccc2c[n+](C)c3c4cc(OC)c(OC)cc4ccc3c2c1", "yes (1)"],
  ["CCOCC(=O)N[C@H]1CCc2cc(OC(=O)COCC)c(OC)c(OC)c2-c2ccc(SC)c(=O)cc21", "no (0)"]
]}
